# Tested on: K562
# measurement-notes: NCI tumour cell line growth inhibition, 48 h
Activity calls are given as the source filed them. Cut-off read from the data, not from the text of the source: active = GI50 up to about 1.1 µM and inactive = higher. Where a SMILES comes first, the peptide text is derived from it. The star is where a group is joined. Boc = CC(C)(C)OC(=O)*
Classes used: Yes for active, No for inactive

# compound, label-class
measured = [
    ("CC(C)N(C(=O)C12C3C4C1C1C2C3C41C(=O)C(C)(C)C)C(C)C (stereo not drawn)", "No"),
    ("CC1(C)O[C@@H](CO)[C@H]([C@@]23OC[C@H]4OC(C)(C)OC4[C@@H]2OC(C)(C)O3)O1 (stereo partly drawn)", "No"),
    ("O=C(CCC1CCCCN1)Nc1ccc2c(c1)C(=O)c1ccc(NC(=O)CCN3CCCCC3)cc1C2=O (stereo not drawn)", "No"),
    ("Cc1cc(C)c2c(-c3ccccc3)cc(=O)[nH]c2c1", "No"),
    ("COc1ccc(/C=C2\\C[C@H]3[C@@H]4CC=C5C[C@@H](O)CC[C@]5(C)[C@H]4CC[C@]3(C)\\C2=N\\O)cc1", "No"),
    ("Cc1cccc(C)c1NC(=O)C(=O)Nn1c(NN)nc2ccccc2c1=O", "No"),
    ("O=C(Nc1nncs1)NS(=O)(=O)n1c(=S)sc2ccccc21", "No"),
    ("Cc1nnc(N)nc1/C=C/c1c(O)ccc2ccccc12", "No"),
    ("COC(=O)CNC(=O)C(Cc1ccccc1)NC(=O)C(CCSC)NC(=O)C(Cc1ccc(O)cc1)NC(=O)OC(C)(C)C (stereo not drawn) (Boc-YMFG-OMe; configuration not given here)", "No"),
    ("C[C@H](CCC(=O)NCCS(=O)(=O)O)[C@H]1CC[C@H]2[C@@H]3CC[C@@H]4C[C@H](O)CC[C@]4(C)[C@H]3CC[C@]12C", "No"),
    ("O=C1/C(=C\\c2cccc(Oc3ccccc3)c2)S(=O)(=O)C(c2ccccc2)N1Cc1ccccc1 (stereo not drawn)", "No"),
    ("COc1cc(/C=C/C2=C(C#N)C(=O)OC2(C)C)ccc1O", "No"),
    ("COc1cccc2c1C(=O)c1c(O)c3c(c(O)c1C2=O)C[C@@](O)(C(=O)CO)CC3OC1CC(O)C(O)C(C)O1 (stereo partly drawn)", "Yes"),
    ("Cc1cccc(C2ON=C(c3ccccc3)N2C23CC4CC(CC(C4)C2)C3)c1 (stereo not drawn)", "No"),
    ("O=S(=O)(/C=C/C(=C/c1ccccc1)S(=O)(=O)c1ccccc1)c1ccccc1", "Yes"),
    ("C(=N\\NC1=NCCCN1)/c1ccc(-c2cn3cc(/C=N/NC4=NCCCN4)ccc3n2)cc1", "No"),
    ("[N-]=[N+]=NC1=C(N=[N+]=[N-])c2cccc3cccc(c23)C1=O", "No"),
    ("COCN1C(N)=C(C(=O)OC(C)(C)C)C2=CC(=O)C=CC21C (stereo not drawn)", "No"),
]
